Cited source for all entries: PubChem BioAssay (NCI)

# Tested on: NCI-H226 lung
# protocol.summary: NCI-60 one-dose screen, 48 h (100 = growth as untreated, 0 = no growth, -100 = all killed)
# condition.parameters: 10 µM unless noted
This is part of a sample that, as a whole, favours compounds with a hit. Of some 83,000 tested, about 20% had one in any assay.
Kindly supply the reported growth values for the records listed here.
Report the value in % with no unit label.

Param item = CC1(C)CC[C@]2(C(=O)O)CC[C@]3(C)C(=CC[C@@H]4[C@@]5(C)C[C@@H](Cc6cn([C@@H]7O[C@H](CO)[C@@H](O)[C@H](O)[C@H]7O)nn6)[C@H](O)C(C)(C)[C@@H]5CC[C@]43C)[C@@H]2C1 ; retrieve measured growth.
98.3

Also Cc1[nH]c(/C=C/C(=O)c2ccc(C(F)(F)F)c(F)c2)c(C)c1C(=O)NCC(C)C , if possible.
98.2

Also COc1cc(C(=O)c2c(N)ncn2-c2ccccc2)cc(OC)c1OC , if possible.
84

Also O=C(CN1CCN(c2cc3c(cc2F)c(=O)c(C(=O)O)cn3C2CC2)CC1)N/N=C/c1ccncc1 , if possible.
100

Also C=CCn1c(SCC(=O)Nc2ccc(C(=O)/C=C/c3ccc(OC)cc3)cc2)nnc1-c1ccccc1 , if possible.
90.3

Also CC1=NN(c2ccc(Cl)cc2)CC1(C)N=O (configuration not stated) , if possible.
76.9

Also COC(=O)C1=C(C)NC(C)=C(C(=O)OCC(C)C)C1c1ccccc1[N+](=O)[O-] (configuration not stated) , if possible.
93.1

* * *

# Tested on: 786-0 renal
# protocol.summary: NCI-60 one-dose screen, 48 h (100 = growth as untreated, 0 = no growth, -100 = all killed)
# condition.parameters: 10 µM unless noted
About 83,000 compounds went through this panel and 20% of them were active in at least one assay; those are over-represented in the sample as a whole.
Decision: growth >= 40% yields met, all other cases yield not met.

Is reported growth greater than or equal to 40% here: CCN1C(=O)N(CC)C2C1NN=c1s/c(=C\c3cc4ccccc4[nH]3)c(=O)n12 (stereo not drawn)
not met

Also Cc1ccc(-c2cc(C(=O)N3N=C(c4ccc(N)cc4)CC3c3ccc(Cl)cc3)c3ccccc3n2)cc1 (stereo not drawn) , if possible.
not met

Also C=C(CN1CC=CCC1)[C@@H]1CC[C@]2(CO)CC[C@]3(C)[C@H](CC[C@@H]4[C@@]5(C)CC[C@H](O)C(C)(C)[C@@H]5CC[C@]43C)[C@@H]12 , if possible.
met

Also COc1ccc(NC(=O)c2sc3nc4c(cc3c2N)CCCC4)cc1 , if possible.
not met

Also C#CC#CC#CC#CC#CC#CC#CC#CC[C@H]1OC[C@H](COC(=O)O[C@@H](C(=O)O[C@H]2C[C@@]3(O)[C@@H](OC(=O)c4ccccc4)[C@@H]4[C@]5(OC(C)=O)CO[C@@H]5C[C@H](O)[C@@]4(C)C(=O)[C@H](OC(C)=O)C(=C2C)C3(C)C)[C@@H](NC(=O)c2ccccc2)c2ccccc2)O1 , if possible.
met

Also N#Cc1nc(-c2ccc(F)cc2)oc1S(=O)(=O)N1CCN(c2ccc(F)cc2)CC1 , if possible.
met

Also CCOC(=O)c1cn2ncnc(Oc3ccc(NC(=O)NC4CC4)c(F)c3)c2c1C , if possible.
met

Also COc1ccc(C2=NN(C(C)=O)C(c3ccc(Oc4ccnc5cc(Cl)ccc45)c(OC)c3)C2)cc1 (stereo not drawn) , if possible.
not met

Also O=C1/C(=C/c2ccc(Br)cc2)COc2ccc(O)c(O)c21 , if possible.
not met

Also CN1CCN(Cc2ccc(NC(=O)c3cncc(C#Cc4cncc5ncccc45)c3)cc2C(F)(F)F)CC1 , if possible.
not met

Also Cc1cc2nc(-c3c(-c4ccc(F)cc4)nc4sccn34)[nH]c2cc1C , if possible.
met

Also CCN(CC)c1ccc(/C=N\NC(=O)c2cccc(Nc3ccnc(C(F)(F)F)c3)c2)c(O)c1 , if possible.
not met

Also C#CCOc1cccc(-c2ncc3cc(NC(=O)CCl)ccc3n2)c1 , if possible.
not met

Also CCN(CCO)CC(C)Nc1ccc([N+](=O)[O-])c2sc3ccccc3c(=O)c12 (stereo not drawn) , if possible.
not met

Also O=C(c1ccc(Cl)cc1Cl)N1c2ccccc2Sc2ccccc21 , if possible.
met

Also COc1cccc(NC(=O)c2cccc(C3CCc4c(cc(OC)c(OC)c4OC)O3)c2)c1 (stereo not drawn) , if possible.
met

Also Cc1ccc(N=Nc2c(N)nn(-c3ccccc3)c2N)cc1 , if possible.
met

Also COc1ccc(OC)c(-c2cn3nc(-c4c[nH]c5ccc(Br)cc45)sc3n2)c1 , if possible.
met

Also COC(=O)/C(CCC=C(C)C)=C1\[C@@H](OC(C)=O)C[C@@]2(C)[C@H]1CC(=O)[C@H]1[C@@]3(C)CCC(N4CCCC4)[C@@H](C)[C@@H]3CC[C@@]12C (stereo partly drawn) , if possible.
met

Also O=C1/C(=C/c2ccc(C(F)(F)F)cc2)COc2ccc(O)c(O)c21 , if possible.
not met

Also CC1CN=C(c2cccc(-c3ccc(-c4ccccc4)o3)c2)N1 (stereo not drawn) , if possible.
not met

Also CCN(CC)S(=O)(=O)c1ccc(S(=O)(=O)N2CCC[C@@H](C(=O)N3CCN(C(=O)OC(C)(C)C)CC3)C2)cc1 , if possible.
met

Also COc1cc(C(=O)c2c(N)ncn2-c2ccccc2)cc(OC)c1OC , if possible.
met

* * *

Kindly supply the reported growth values for the records listed here.
# System: MDA-MB-435 melanoma
# protocol.summary: NCI-60 one-dose screen, 48 h (100 = growth as untreated, 0 = no growth, -100 = all killed)
# condition.parameters: 10 µM unless noted
This is part of a sample that, as a whole, favours compounds with a hit. Of some 83,000 tested, about 20% had one in any assay. The source made the active and inactive calls. How the source made its calls: active means growth percent below 10; inactive means the rest.

# returns recorded growth (system: MDA-MB-435 melanoma) for COc1ccc2c(c1)c(-c1cc(-c3cn(C)c4ccc(OC)cc34)on1)cn2C
116% (inactive)

Also COc1cc(/C=C2\CN(S(=O)(=O)c3ccc(C)cc3)C/C(=C\c3cc(CN4CCCCC4)c(O)c(OC)c3)C2=O)cc(CN2CCCCC2)c1O , if possible.
-82.6% (active)

Also Cc1nn(-c2ccccc2)c(/N=C/N(C)C)c1/C=C/C(=O)c1ccc(Cl)cc1 , if possible.
98.4% (inactive)

Also CCN(CC)CCCC(C)Nc1ccc2cc(OC)ccc2n1 (stereo not given) , if possible.
104% (inactive)

Also O=C(CCCCCCCCC(=O)N/N=C\c1cc(Cl)ccc1O)N/N=C\c1cc(Cl)ccc1O , if possible.
38.1% (inactive)

* * *

# Test system: HOP-62 NSCLC
# protocol.summary: NCI-60 one-dose screen, 48 h (100 = growth as untreated, 0 = no growth, -100 = all killed)
# condition.parameters: 10 µM unless noted
About 83,000 compounds went through this panel and 20% of them were active in at least one assay; those are over-represented in the sample as a whole.
Kindly supply the reported growth values for the records listed here.
Report the value in % with no unit label.

Param item = CC/C=C\C/C=C/C=C1/C(=O)C=C[C@@H]1C/C=C\CCCC(=O)OC ; retrieve measured growth.
36.1

Also CCCCCn1sc(=O)n(Cc2ccc(CNC(=O)OCc3ccc4c(Cl)cc(Cl)c(O)c4n3)cc2)c1=O , if possible.
41.7

Also COc1ccc(C2C(C#N)=C(N)Oc3c2sc2c(Br)cccc32)cc1 (stereo not drawn) , if possible.
23.7

* * *

Kindly supply the reported growth values for the records listed here.
# Test system: OVCAR-5 ovarian
# protocol.summary: NCI-60 one-dose screen, 48 h (100 = growth as untreated, 0 = no growth, -100 = all killed)
# condition.parameters: 10 µM unless noted
# Description: Growth inhibition of the OVCAR-5 human tumor cell line is measured as a screen for anti-cancer activity. Cells are grown in 96 well plates and exposed to the test compound for 48 hours. Compounds are tested at a single concentration, which is 10^-5 M for most compounds. The reported endpoint is percent growth (GI% or GIPRCNT), where numbers from 0 - 100% represent growth inhibition, and numbers from -100% - 0 represent cell death. For example, a value of 40 represents 60% growth inhibition. […]
This is part of a sample that, as a whole, favours compounds with a hit. Of some 83,000 tested, about 20% had one in any assay.
Report the value in % with no unit label.

Param item = CCN1C(=O)N(CC)C2C1NN=c1s/c(=C\c3cc4ccccc4[nH]3)c(=O)n12 (stereo not drawn) ; retrieve measured growth.
33.9

Also CCCCCCCCNc1cc2c3c(c1)CCCN3CCC2 , if possible.
17.6

Also Nc1nc(C(=O)N/N=C/c2ccc(N3CCOCC3)cc2)nn1-c1ccc(S(N)(=O)=O)cc1 , if possible.
114
